- target or system: GST-caspase 8/His-caspase 8 (Homo sapiens, UniProt Q14790)
- Sequence (Q14790 1-184): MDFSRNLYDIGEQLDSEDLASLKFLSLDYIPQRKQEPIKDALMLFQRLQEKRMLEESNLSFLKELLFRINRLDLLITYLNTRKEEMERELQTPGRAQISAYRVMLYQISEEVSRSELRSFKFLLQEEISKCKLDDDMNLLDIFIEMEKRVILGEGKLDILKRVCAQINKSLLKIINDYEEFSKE
- assay protocol: AlphaScreen counter-screen GST-caspase 8/His-caspase 8
- Format: binding

chem smiles | EC50, mM
c1ccc2[nH]cnc2c1 | 1.05

---

- target or system: GST-E6/His-E6AP (Human papillomavirus type 16, UniProt P03126)
- Sequence (P03126 whole entry): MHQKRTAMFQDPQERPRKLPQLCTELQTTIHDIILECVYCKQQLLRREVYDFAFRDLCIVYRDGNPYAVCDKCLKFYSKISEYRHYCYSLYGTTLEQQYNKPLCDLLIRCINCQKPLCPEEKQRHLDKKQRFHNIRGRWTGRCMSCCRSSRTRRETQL
- assay protocol: AlphaScreen bead-based binding assay GST-E6/His-E6AP
- Description: Figure 2 3-(1H-indol-1yl)propan-1-amine (1), three benzimidazole derivatives (2–4), and spinacine (5) inhibit protein–protein interactions. […] The construction of the pGEX-E6, pTriEx-E6AP, and pTriEx-Caspase-8 DED plasmids has been reported.[33] […] Protein concentration was measured using Coomassie Plus – The Better Bradford Assay Reagent (Thermo Scientific, Waltham, MA, USA). […]
pEC50: −log10 of the molar value.
Reported pEC50 by item:

compound | pEC50
c1ccc2[nH]cnc2c1 | 2.83
NCCCn1ccc2ccccc21 | 3.17
O=C(O)C1Cc2[nH]cnc2CN1 (stereo not drawn) | 4.70
